Provenance of the data: patent US20230285582A1

Measured EC50 of individual entries
target desc: T1, cynomolgus monkey (Macaca fascicularis) TfR1 (cynomolgus monkey (Macaca fascicularis), UniProt Q5RDH6 89-760 (Pongo abelii entry), limits assumed)
T1 construct: also called cTfR1; cyTfR1
T1 chain: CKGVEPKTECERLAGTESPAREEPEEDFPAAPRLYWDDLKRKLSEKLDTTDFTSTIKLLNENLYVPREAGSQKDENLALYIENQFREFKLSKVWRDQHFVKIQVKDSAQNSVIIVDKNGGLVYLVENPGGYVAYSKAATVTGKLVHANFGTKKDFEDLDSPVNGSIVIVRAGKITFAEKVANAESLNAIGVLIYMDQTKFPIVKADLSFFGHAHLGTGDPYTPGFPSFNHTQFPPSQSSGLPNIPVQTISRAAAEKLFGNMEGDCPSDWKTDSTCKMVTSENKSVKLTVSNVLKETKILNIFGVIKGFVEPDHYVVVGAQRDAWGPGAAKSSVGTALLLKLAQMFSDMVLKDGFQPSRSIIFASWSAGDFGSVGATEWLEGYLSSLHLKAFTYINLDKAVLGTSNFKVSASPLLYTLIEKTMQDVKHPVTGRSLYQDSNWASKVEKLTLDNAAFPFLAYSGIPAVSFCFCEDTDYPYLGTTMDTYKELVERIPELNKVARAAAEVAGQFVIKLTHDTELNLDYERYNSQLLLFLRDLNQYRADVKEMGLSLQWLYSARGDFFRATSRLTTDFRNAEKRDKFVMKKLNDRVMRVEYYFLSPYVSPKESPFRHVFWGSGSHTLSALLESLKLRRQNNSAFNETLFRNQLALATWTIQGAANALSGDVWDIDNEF
measurement notes: ELISA, Fab-ASO300 conjugate
Dear colleague, please return just the value in nM, with no unit written.

>  <binder>
conjugate of humanized anti-TfR Fab 3A4 VH3 (N54T)/Vk4 with DMPK-targeting oligonucleotide ASO300 (Fab, V domains shown, ASO300 oligonucleotide attached through a cleavable Val-Cit linker (Formula (C)); residue and chain not stated, also called 3A4 (VH3-N54T/Vk4) conjugate; DMPK oligo conjugate) VH: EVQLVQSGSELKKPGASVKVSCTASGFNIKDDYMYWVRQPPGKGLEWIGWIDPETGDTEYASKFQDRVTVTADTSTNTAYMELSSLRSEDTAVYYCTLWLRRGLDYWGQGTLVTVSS VL: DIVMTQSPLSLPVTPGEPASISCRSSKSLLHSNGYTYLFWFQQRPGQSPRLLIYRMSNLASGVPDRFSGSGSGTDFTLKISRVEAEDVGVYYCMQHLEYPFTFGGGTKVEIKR

>  <unit of measure>
nM

>  <readout value>
5.12

$$$$
>  <binder>
conjugate of humanized anti-TfR Fab 3M12 VH4/Vk3 with DMPK-targeting oligonucleotide ASO300 (Fab, V domains shown, ASO300 oligonucleotide attached through a cleavable Val-Cit linker (Formula (C)); residue and chain not stated, also called 3M12 (VH4/Vk3) conjugate; DMPK oligo conjugate) VH: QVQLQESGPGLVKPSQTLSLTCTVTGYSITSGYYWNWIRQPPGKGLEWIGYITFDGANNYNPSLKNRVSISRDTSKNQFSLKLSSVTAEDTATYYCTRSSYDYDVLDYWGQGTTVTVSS VL: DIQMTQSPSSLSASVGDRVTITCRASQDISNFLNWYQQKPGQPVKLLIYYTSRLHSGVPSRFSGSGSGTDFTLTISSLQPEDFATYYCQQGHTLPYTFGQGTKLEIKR

>  <unit of measure>
nM

>  <readout value>
1.85

$$$$

Data request, read-out EC50, for conjugate of humanized anti-TfR Fab 3A4 VH3 (N54S)/Vk4 with DMPK-targeting oligonucleotide ASO300 (Fab, V domains shown, ASO300 oligonucleotide attached through a cleavable Val-Cit linker (Formula (C)); residue and chain not stated, also called 3A4 (VH3-N54S/Vk4) conjugate; DMPK oligo conjugate) VH: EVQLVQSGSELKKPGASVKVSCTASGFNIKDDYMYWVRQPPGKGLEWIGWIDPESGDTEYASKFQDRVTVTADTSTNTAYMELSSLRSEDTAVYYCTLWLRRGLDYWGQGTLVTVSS VL: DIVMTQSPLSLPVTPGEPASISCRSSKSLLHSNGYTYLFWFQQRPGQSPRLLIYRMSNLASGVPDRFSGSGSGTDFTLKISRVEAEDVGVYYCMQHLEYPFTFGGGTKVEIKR 4.1
